Known binding signal of a selection of sequences
Molecular target: C-Rel subunit;p52 subunit (Homo sapiens;Homo sapiens, UniProt Q04864;Q00653 1-285;4-332)
Sequence 1: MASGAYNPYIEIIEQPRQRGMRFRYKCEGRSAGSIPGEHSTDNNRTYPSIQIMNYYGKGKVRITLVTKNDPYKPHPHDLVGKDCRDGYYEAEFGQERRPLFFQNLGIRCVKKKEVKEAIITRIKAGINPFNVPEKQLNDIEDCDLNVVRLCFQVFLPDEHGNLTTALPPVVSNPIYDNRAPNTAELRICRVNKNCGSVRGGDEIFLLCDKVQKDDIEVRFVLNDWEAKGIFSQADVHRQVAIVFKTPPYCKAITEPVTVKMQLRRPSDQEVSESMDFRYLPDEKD
Sequence 2: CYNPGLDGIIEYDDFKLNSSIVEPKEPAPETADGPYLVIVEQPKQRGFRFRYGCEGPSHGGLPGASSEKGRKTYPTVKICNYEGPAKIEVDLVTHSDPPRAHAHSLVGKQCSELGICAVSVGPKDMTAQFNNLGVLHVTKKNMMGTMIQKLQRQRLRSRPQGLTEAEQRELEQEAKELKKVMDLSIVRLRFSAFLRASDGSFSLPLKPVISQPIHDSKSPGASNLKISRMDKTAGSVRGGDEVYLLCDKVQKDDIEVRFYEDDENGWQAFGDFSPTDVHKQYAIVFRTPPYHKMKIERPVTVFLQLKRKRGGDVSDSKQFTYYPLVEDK
Assay: protein binding microarray; high values mean tight binding
Conditions: dsDNA, one strand shown
valueKind: binding signal (z-score)

CAAATTTTCCC; 1.39
CGGATCTTCCT; -0.666
GGGGTCTCCCT; 1.16
